Source: patent US20250144067A1

Tested on: NCI-H292 lung cancer cells
Experiment: FDA drug screening, complete media vs cholesterol-free media without statin (TABLE 1)
Type: cell-based, human
Conditions: NCI-H292 cells, cholesterol-free media without statin, FDA drug library screen
Where a name gives a salt, the structure may show the parent alone.
Threshold rule: Cholesterol-free greater than or equal to 0.9 is YES; below that, NO.

[
  {
    "molecule": "CCCCC(=O)OCC(=O)[C@]1(O)Cc2c(O)c3c(c(O)c2[C@@H](O[C@H]2C[C@H](NC(=O)C(F)(F)F)[C@H](O)[C@H](C)O2)C1)C(=O)c1c(OC)cccc1C3=O [Valrubicin]",
    "className": "NO"
  },
  {
    "molecule": "CC(=O)NS(=O)(=O)c1ccc(N)cc1 [Sulfacetamide (Sodium)]",
    "className": "NO"
  },
  {
    "molecule": "CC1CCC(C(C)C)C(O)C1 (stereo not shown) [Menthol]",
    "className": "YES"
  },
  {
    "molecule": "COC1=C[C@@H]2[C@@H]3Cc4ccc(OC)c(O)c4[C@]2(CCN3C)CC1=O [Sinomenine hydrochloride]",
    "className": "YES"
  }
]

For this molecule, is measured Cholesterol-free 0.9 or higher? Nc1ccc(S(=O)(=O)Nc2ccccn2)cc1 [Sulfapyridine]
NO
